method_description: Cytotoxicity against human GLC82 cells after 48 hrs by MTT assay
Assay type: functional, cell-based
run_conditions: Homo sapiens, GLC82, 48 h; read-out: IC50
Below, each entry is listed alongside its reported IC50.

>  <compound>
CC(=O)Nc1c(C)cc(C)c2c1C(=O)C(=O)c1c(-c3ccccc3)csc1-2

>  <value_units>
µM

>  <bound_operator>
=

>  <IC50>
5

$$$$
>  <compound>
CC(=O)Nc1c(C)cc(C)c2c1C(=O)C(=O)c1c(-c3ccccc3)coc1-2

>  <value_units>
µM

>  <bound_operator>
=

>  <IC50>
7.2

$$$$
>  <compound>
O=C1C(=O)c2c(-c3ccc(Cl)cc3)coc2-c2cccc(N3C(=O)CCC3=O)c21

>  <value_units>
µM

>  <bound_operator>
=

>  <IC50>
1.6

$$$$
>  <compound>
CC(=O)Nc1c(C)cc(C)c2c1C(=O)C(=O)c1c(-c3ccc(Cl)cc3)coc1-2

>  <value_units>
µM

>  <bound_operator>
=

>  <IC50>
6

$$$$
>  <compound>
Cc1ccc(-c2coc3c2C(=O)C(=O)c2cc(C)cc(C)c2-3)cc1

>  <value_units>
µM

>  <bound_operator>
=

>  <IC50>
12

$$$$
>  <compound>
CC(=O)Nc1c(C)cc(C)c2c1C(=O)C(=O)c1c(-c3ccc(Cl)cc3)csc1-2

>  <value_units>
µM

>  <bound_operator>
=

>  <IC50>
7.5

$$$$
>  <compound>
CC(=O)Nc1c(C)cc(C)c2c1C(=O)C(=O)c1c(-c3ccc(F)cc3)coc1-2

>  <value_units>
µM

>  <bound_operator>
=

>  <IC50>
8.9

$$$$
>  <compound>
Cc1cc(C)c2c(c1)C(=O)C(=O)c1c(-c3ccccc3)coc1-2

>  <value_units>
µM

>  <bound_operator>
>

>  <IC50>
25

$$$$
>  <compound>
CC[C@@]1(O)C(=O)OCc2c1cc1n(c2=O)Cc2cc3cc(O)ccc3nc2-1 [HYDROXYCAMPTOTHECIN]

>  <value_units>
µM

>  <bound_operator>
=

>  <IC50>
1.09

$$$$
>  <compound>
O=C1C(=O)c2c(-c3ccccc3)csc2-c2ccccc21

>  <value_units>
µM

>  <bound_operator>
=

>  <IC50>
20.1

$$$$
>  <compound>
CC(=O)Nc1c(C)cc(C)c2c1C(=O)C(=O)c1c(-c3ccc(F)cc3)csc1-2

>  <value_units>
µM

>  <bound_operator>
=

>  <IC50>
3.9

$$$$
>  <compound>
CC(=O)Nc1c(C)cc(C)c2c1C(=O)C(=O)c1c(-c3ccc(C)cc3)coc1-2

>  <value_units>
µM

>  <bound_operator>
=

>  <IC50>
9.5

$$$$

* * *

method_description: Cytotoxicity against human CNE2 cells after 48 hrs by MTT assay
Format: functional, cell-based, CNE-2
run_conditions: Homo sapiens, CNE-2, 48 h; read-out: IC50
// NB: equality with 6 µM counts as not fulfilled; only IC50 strictly below is fulfilled

>  <molecule>
CC(=O)Nc1c(C)cc(C)c2c1C(=O)C(=O)c1c(-c3ccc(C)cc3)coc1-2

>  <qualitative_label>
fulfilled

$$$$
>  <molecule>
CC[C@@]1(O)C(=O)OCc2c1cc1n(c2=O)Cc2cc3cc(O)ccc3nc2-1 [HYDROXYCAMPTOTHECIN]

>  <qualitative_label>
fulfilled

$$$$
>  <molecule>
CC(=O)Nc1c(C)cc(C)c2c1C(=O)C(=O)c1c(-c3ccccc3)coc1-2

>  <qualitative_label>
fulfilled

$$$$
>  <molecule>
CC(=O)Nc1c(C)cc(C)c2c1C(=O)C(=O)c1c(-c3ccccc3)csc1-2

>  <qualitative_label>
fulfilled

$$$$
>  <molecule>
Cc1cc(C)c2c(c1)C(=O)C(=O)c1c(-c3ccccc3)coc1-2

>  <qualitative_label>
not fulfilled

$$$$
>  <molecule>
O=C1C(=O)c2c(-c3ccc(Cl)cc3)coc2-c2cccc(N3C(=O)CCC3=O)c21

>  <qualitative_label>
fulfilled

$$$$
>  <molecule>
CC(=O)Nc1c(C)cc(C)c2c1C(=O)C(=O)c1c(-c3ccc(Cl)cc3)csc1-2

>  <qualitative_label>
not fulfilled

$$$$
>  <molecule>
Cc1ccc(-c2coc3c2C(=O)C(=O)c2cc(C)cc(C)c2-3)cc1

>  <qualitative_label>
not fulfilled

$$$$
>  <molecule>
CC(=O)Nc1c(C)cc(C)c2c1C(=O)C(=O)c1c(-c3ccc(F)cc3)csc1-2

>  <qualitative_label>
fulfilled

$$$$
>  <molecule>
CC(=O)Nc1c(C)cc(C)c2c1C(=O)C(=O)c1c(-c3ccccc3C)csc1-2

>  <qualitative_label>
fulfilled

$$$$
>  <molecule>
CC(=O)Nc1c(C)cc(C)c2c1C(=O)C(=O)c1c(-c3ccc(Cl)cc3)coc1-2

>  <qualitative_label>
not fulfilled

$$$$
